- Test method notes: Rat 28-day GLP repeat dose PO study (toxicokinetics)
- Type: in vivo
- Measurement context: male, rat, in vivo, po, 2000 mg/kg, Day 1, M, 2000 mg/kg PO; read-out: CL/F (CLz/F) (converted)
Where a name gives a salt, the structure may show the parent alone.
Parameter: CL/F (mL/min/kg)

>>> df
                                   compound  unit_label  meas_value
0  CC1(C)SC(Nc2ccccc2O)=N[C@@H]1C(=O)O [Compound 1, mono-hydrochloride]   mL/min/kg        43.2

###

- Test method notes: Rat 28-day GLP repeat dose PO study (toxicokinetics)
- Format: in vivo
- Measurement context: male, rat, in vivo, po, 1000 mg/kg, Day 1, M, 1000 mg/kg PO; read-out: t1/2 (converted)
Where a name gives a salt, the structure may show the parent alone.
Parameter: half-life (h)

                                   compound  meas_value
0  CC1(C)SC(Nc2ccccc2O)=N[C@@H]1C(=O)O [Compound 1, mono-hydrochloride]        3.46

###

- Test method notes: Dog 7-day repeat dose PO study
- Type: in vivo
- Measurement context: male, plasma, 400 mg/kg, Day 1, 400 mg/kg PO, M, N = 1
Counter-ions that a name gives are not always drawn.
Parameter: Cmax (µg/mL)

>>> print(df.to_string())
                                   molecule  unit_label  meas_value
0  CC1(C)SC(Nc2ccccc2O)=N[C@@H]1C(=O)O [Compound 1, mono-hydrochloride]       µg/mL         167

###

- Test method notes: pKa values
- Format: physicochemical
- Measurement context: Acidic (first)
Structures can show the parent of a compound that is named as a salt.
Parameter: pKa

>>> df
                                   compound  parameter  meas_value
0  CC1(C)SC(Nc2ccccc2O)=N[C@@H]1C(=O)O [Compound 1, mono-hydrochloride]        pKa        2.29

###

- Test method notes: Rat pharmacokinetics after single PO dose
- Measurement context: male, Sprague Dawley, rat, plasma, po, 100 mg/kg
Where a name gives a salt, the structure may show the parent alone.
Parameter: concentration at 24 h (ng/mL)

                                   compound              parameter  unit_label  meas_value
0  CC1(C)SC(Nc2ccccc2O)=N[C@@H]1C(=O)O [Compound 1, mono-hydrochloride]  concentration at 24 h       ng/mL         599

###

- Test method notes: Dog 7-day repeat dose PO study
- Assay type: in vivo
- Measurement context: male, plasma, 350 mg/kg, Day 7, 350 mg/kg PO, M, N = 1
Structures can show the parent of a compound that is named as a salt.
Parameter: AUC(0-t)

>>> print(df.to_string())
                                   molecule   meas_value
0  CC1(C)SC(Nc2ccccc2O)=N[C@@H]1C(=O)O [Compound 1, mono-hydrochloride]  591 µg·h/mL

###

- Test method notes: Dog single oral dose MTD study
- Type: in vivo
- Measurement context: male, dog, plasma; 500 mg/kg PO (Dose 2; Day 4), 1 h, M, N = 2; read-out: Average Compound 1 Concentration in dog plasma
Counter-ions that a name gives are not always drawn.
Parameter: concentration at 1 h (µg/mL)

>>> print(df.to_string())
                                   compound  meas_value
0  CC1(C)SC(Nc2ccccc2O)=N[C@@H]1C(=O)O [Compound 1, mono-hydrochloride]         191
